Biological target: MCUb-NTD (MCUb58-159) (Homo sapiens, UniProt Q9NWR8)
Construct: N-terminal domain, residues 58-159; pET-28a, E. coli BL21(DE3) codon plus; N-terminal 6xHis tag cut with thrombin
Sequence (Q9NWR8 58-159): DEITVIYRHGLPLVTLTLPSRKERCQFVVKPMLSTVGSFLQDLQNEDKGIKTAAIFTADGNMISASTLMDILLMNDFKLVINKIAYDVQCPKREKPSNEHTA
Test: ANS fluorescence titration, one-site fit
Details: read-out: apparent KD
property: Kd
Give the figure together with its unit, number first.

[Q] What value of measured Kd is listed for O=S(=O)(O)c1cccc2cccc(Nc3ccccc3)c12 [ANS, 8-Anilinonapthalene 1-sulfonic acid] ?
[A] 1500 nM
